Values were extracted from ChEMBL document CHEMBL1201862.

Catalogue of compounds with associated GI50
- Tested on: SN12C
- ASSAY_DETAILS: NCI tumour cell line growth inhibition, 48 h
Activity calls are given as the source filed them. No stated cut-off is given here; in the data, active = GI50 up to about 1.1 µM and inactive = higher.

// known answers, use as guide
| COMPOUND | RESULT |
| --- | --- |
| NCCSCCc1ccccc1 | > 100 µM (inactive) |
| NNc1nnc(-c2nnc(NN)o2)o1 | > 10 µM (inactive) |
| Cn1c(=O)n2n(c1=O)C([S+]([O-])c1ccccc1)C2 (stereo not given) | > 100 µM (inactive) |
| Clc1ccc(-c2noc(CN3CCCCC3)n2)cc1 | > 100 µM (inactive) |

Give the reported value of GI50 for this record: CNC(=S)/N=C(\N)N(C)C
> 100 µM (inactive)

###

- System: MCF7
- ASSAY_DETAILS: NCI tumour cell line growth inhibition, 48 h
The source made the active and inactive calls. Cut-off read from the data, not from the text of the source: active = GI50 up to about 1.1 µM and inactive = higher.
TEST_READOUT: GI50

Use the examples below as a reference point.
| COMPOUND | TARGET_OR_SYSTEM | GI50 |
| --- | --- | --- |
| C=C1C(=O)[C@@]23CC[C@H]4[C@@](C)(CCC[C@@]4(C)C(=O)OC)[C@@H]2CC[C@]1(O)C3 | MCF7 | 2.12 µM (inactive) |
| CCN(CC)C(=S)SC1C(=O)NC(=O)NC1=O | MCF7 | > 100 µM (inactive) |
| COc1ccc(CCc2cc(OC)c(OC)c(OC)c2)cc1 | MCF7 | 0.0283 µM (active) |
| CCOC(=O)C(NC(=O)CC)(Nc1ccc(S(=O)(=O)Nc2ccc(OC)nn2)cc1)C(F)(F)F (centres undefined) | MCF7 | > 100 µM (inactive) |
| CC1(C)C/C(=N/O)c2c(nc3ccc4ccccc4c3c2-c2ccc(Cl)cc2)C1 | MCF7 | 11.2 µM (inactive) |
| COc1ccc(C2(O)C(S(=O)(=O)c3ccc(C)cc3)=Cc3ccc(OC)cc32)cc1 (centres undefined) | MCF7 | 35 µM (inactive) |
| CC(C)(C)OC/C=C(/CO)[C@@H]1C=C[C@H](O)C1 | MCF7 | > 100 µM (inactive) |
| CC(C)(C)c1cc2c(O)c(c1)Cc1cc(C(C)(C)C)cc(c1O)Cc1cc(C(C)(C)C)cc(c1O)Cc1cc(C(C)(C)C)cc(c1O)Cc1cc(C(C)(C)C)cc(c1O)Cc1cc(C(C)(C)C)cc(c1O)Cc1cc(C(C)(C)C)cc(c1O)Cc1cc(C(C)(C)C)cc(c1O)C2 | MCF7 | > 50 µM (inactive) |
| Sc1nnc(C23CC4CC(CC(C4)C2)C3)n1-c1ccc(Cl)cc1 | MCF7 | 13.1 µM (inactive) |
| COC(=O)C1=C(C(=O)OC)C(OO)(c2ccccc2)OC1=O (centres undefined) | MCF7 | 52.1 µM (inactive) |

Hello, please tell me recorded GI50 for this one: COC(=O)[C@@H]1C[C@@H]2c3ccccc3N(S(=O)(=O)c3ccccc3)[C@@H]2N1C(=O)OC
> 100 µM (inactive)

Output measured GI50 for this item: O=C1C=C(c2c(O)ccc3ccccc23)c2ccccc2C1=O
< 0.01 µM (active)

Read the entry CCN(CC)COC(=S)S and write its reported GI50.
> 100 µM (inactive)

Answer with the recorded GI50 of CN(C)CCCNc1ncnc2[nH]cnc12 only.
> 100 µM (inactive)

###

# key: entry, value: GI50
- Tested on: RXF 631
- ASSAY_DETAILS: NCI tumour cell line growth inhibition, 48 h
The source made the active and inactive calls. Rule as the data show it: active = GI50 up to about 1.1 µM and inactive = higher.

Observe how each entry below is paired with its result.
| COMPOUND | RESULT |
| --- | --- |
| C[C@@H](C1CCC2C3C(=CC(=O)[C@@]21C)[C@H](C)[C@]1(CCC(=O)O1)C1OC31)[C@H]1C[C@]2(C)O[C@@](C)(O1)OC2(C)C (stereo partly drawn) | > 100 µM (inactive) |
| O=C1C=C(c2c(O)ccc3ccccc23)c2ccccc2C1=O | 6.56 µM (inactive) |
| C/N=c1/ss/c(=N\C(SC)=[N+](C)C)n1C.[O-][Cl+3]([O-])([O-])[O-] | 8.13 µM (inactive) |
| CCOC(=O)C(C)c1cc(C2(C)OCCO2)c(C)o1 (stereo not drawn) | > 100 µM (inactive) |
| COc1ccc(/N=N/C(C(=O)c2ccccc2)C(=O)c2ccccc2)cc1 | 31.4 µM (inactive) |
| CN(N=O)C(=O)NC(CCCCNC(=O)OCc1ccccc1)C(=O)OCc1ccccc1 (stereo not drawn) | 19.9 µM (inactive) |

Consider the compound O=C1C=CC(=O)C12CCc1ccccc12 . State its measured GI50.
> 100 µM (inactive)

Tell me its GI50 given C[n+]1cn(CC(=O)c2ccccc2)c(C(N)=O)c1N as the entry.
> 100 µM (inactive)

Quickly give me recorded GI50 for CC(CC(=O)Nc1ccc(NC(=O)CC(C)/N=N\C(N)=S)cc1)/N=N\C(N)=S (stereo not drawn)
> 100 µM (inactive)

Return value of GI50 for input COc1nc2c(nc(N)n2C2OC(CO)C(O)C(O)C2O)c(=O)n1C (stereo not drawn) , no commentary.
> 100 µM (inactive)

Report GI50 for CN1COCN/C1=N/C#N
> 100 µM (inactive)

Indicate its recorded GI50; the compound in question is Nc1nccc2c1ncn2C1C=C(CO)C(O)C1O (stereo not drawn)
83.6 µM (inactive)

Please give measured GI50 of the following entry: COc1ccccc1NC(=O)C1=C(C)NC(C)=C(C(=O)Nc2ccccc2OC)C1c1ccccc1Cl
> 100 µM (inactive)

###

- Test system: A498
- ASSAY_DETAILS: NCI tumour cell line growth inhibition, 48 h
The source made the active and inactive calls. Cut-off read from the data, not from the text of the source: active = GI50 up to about 1.1 µM and inactive = higher.
TEST_READOUT: GI50

Recorded GI50, per entry:
| COMPOUND | TARGET_OR_SYSTEM | GI50 |
| --- | --- | --- |
| CN(C)C1=Nc2ccccc2C(=S)N2CSCC12 (stereo unspecified) | A498 | > 100 µM (inactive) |
| C[C@H]1[C@H](C)N(Cc2ccccc2)P(=O)(C(O)/C=C/c2ccccc2)N1Cc1ccccc1 (stereo partly specified) | A498 | 5.45 µM (inactive) |
| CN(C)c1ccc2cc3ccc(N(C)C)cc3nc2c1 | A498 | 4.08 µM (inactive) |
| CSc1c(C#N)c2n(c3ccccc3[n+]2C)c2ncccc12 | A498 | 25.8 µM (inactive) |
| CCN(CC)COC(=S)S | A498 | > 100 µM (inactive) |

Recall the reported GI50 of COC(=O)c1cc2c(n1S(=O)(=O)c1ccc(C)cc1)C(=O)C(=O)c1[nH]cc(C(=O)OCc3ccccc3)c1-2 on A498 and write it down.
1.65 µM (inactive)

Lab note: A498 assay, enter GI50 for CC(C)(O)CCC(O)C(C)(O)C1CCC2(O)C3=CC(=O)C4(O)CC(O)C(O)CC4(C)C3CCC12C.CC(C)(O)CCC(O)C(C)(O)C1CCC2(O)C3=CC(=O)C4CC(O)C(O)CC4(C)C3CCC12C (stereo unspecified) here
> 100 µM (inactive)

Under A498: report GI50 of CCCCCCOc1ccc(NC2=C(Cl)C(=O)c3c(O)ccc(O)c3C2=O)cc1 .
4.57 µM (inactive)

// output GI50; input N#CC(C(=O)CCCC(=O)Nc1ccccc1[N+](=O)[O-])c1c(Cl)cccc1Cl (stereo unspecified) ; system A498
> 100 µM (inactive)

Give GI50 only, for S=c1ssc2c3ssc(=S)c3n(Cc3ccccc3)c12 , using A498 data.
> 100 µM (inactive)

Enter measured GI50, system A498, for the compound shown: CC(C)CC1NC(=O)C(C(C)C)NC(=O)CC(C)COC(=O)C(CC(C)C)N(C)C(=O)C(C(C)C)NC(=O)C(C(C)C)OC1=O (stereo unspecified)
> 50 µM (inactive)

Report GI50 under test system A498 for CC(CC(=O)Nc1ccc(NC(=O)CC(C)/N=N\C(N)=S)cc1)/N=N\C(N)=S (stereo unspecified) .
> 100 µM (inactive)

Give the observed GI50 of C=C1C(=O)[C@@]23CC[C@H]4[C@@](C)(CCC[C@@]4(C)C(=O)OC)[C@@H]2CC[C@]1(O)C3 for A498.
1.71 µM (inactive)

Quote GI50 with test system A498 for C1CSC(=[N+]2CC[N+](=C3SCCS3)CC2)S1
> 100 µM (inactive)

###

- Test system: SF-268
- ASSAY_DETAILS: NCI tumour cell line growth inhibition, 48 h
Counter-ions that a name gives are not always drawn. Active and inactive are the calls of the source. Rule as the data show it: active = GI50 up to about 1.1 µM and inactive = higher.
Classes to choose from: active, inactive

| MOLECULE | LABEL_CLASS |
| --- | --- |
| CC(C)C[C@H]1C(=O)N2CCC[C@H]2[C@]2(O)O[C@](NC(=O)[C@@H]3C=C4c5cccc6[nH]c(Br)c(c56)C[C@H]4N(C)C3)(C(C)C)C(=O)N12 [BROMOCRIPTINE MESYLATE] | inactive |
| CCn1c2ccc(C(=O)CCCN(C)C)cc2c2cc(C(=O)CCCN(C)C)ccc21 | inactive |
| COc1cc2c3c(n(CCCNCCO)c(=O)c2cc1OC)-c1cc2c(cc1C3=O)OCO2 | active |
| Cn1c(=O)c2c(nc(NCCCCl)n2CC(=O)NCCCCl)n(C)c1=O | inactive |
| O=C(Nc1nccs1)NS(=O)(=O)n1cnc2ccccc21 | inactive |
| Cn1c(SCc2ccc(F)cc2)nnc1C12CC3CC(CC(C3)C1)C2 | inactive |

Which outcome did this test record for the molecule O=C1C(c2ccccc2)=C(c2ccccc2)C(c2ccccc2)/C1=C1\C(=O)C(c2ccccc2)=C(c2ccccc2)C1c1ccccc1 (stereo not given) ?
inactive

Give the logged outcome of this assay for the following molecule: CC(=O)OC12c3ccccc3C(c3ccccc31)C1C(=O)N(N=C(C)C)C(=O)C12 (stereo not given)
inactive

Identify the outcome logged in this assay for the molecule shown: C/C=C1\C[C@@H]2C(OC)Nc3cc(O)c(OC)cc3C(=O)N2C1 (stereo not given in full)
active
